Taken from paper PMC4365270.

Assay: Plasma pharmacokinetics of DEBIO1143 in patients (LC-MS/MS)
Type: in vivo, human
Conditions: human, plasma, oral, 120 mg, day 5, n=3, mean (SD)

[
  {
    "Smiles representation": "CN[C@@H](C)C(=O)N[C@H]1CN(C(=O)CC(C)C)CC[C@H]2CC[C@@H](C(=O)NC(c3ccccc3)c3ccccc3)N2C1=O",
    "AUC(0-inf) (ng·h/mL)": 6770
  }
]

* * *

Test: Plasma pharmacokinetics of DEBIO1143 in patients (LC-MS/MS)
Assay type: in vivo, human
Conditions: human, plasma, oral, 20 mg, day 5, n=1

[
  {
    "Smiles representation": "CN[C@@H](C)C(=O)N[C@H]1CN(C(=O)CC(C)C)CC[C@H]2CC[C@@H](C(=O)NC(c3ccccc3)c3ccccc3)N2C1=O",
    "AUC(0-t), ng·h/mL": 375
  }
]
